Target: human B1R receptor (Homo sapiens, UniProt P46663)
Construct: host or cells: CHO K1 cells (Chinese hamster ovary), stably transfected
Sequence (P46663 1-353): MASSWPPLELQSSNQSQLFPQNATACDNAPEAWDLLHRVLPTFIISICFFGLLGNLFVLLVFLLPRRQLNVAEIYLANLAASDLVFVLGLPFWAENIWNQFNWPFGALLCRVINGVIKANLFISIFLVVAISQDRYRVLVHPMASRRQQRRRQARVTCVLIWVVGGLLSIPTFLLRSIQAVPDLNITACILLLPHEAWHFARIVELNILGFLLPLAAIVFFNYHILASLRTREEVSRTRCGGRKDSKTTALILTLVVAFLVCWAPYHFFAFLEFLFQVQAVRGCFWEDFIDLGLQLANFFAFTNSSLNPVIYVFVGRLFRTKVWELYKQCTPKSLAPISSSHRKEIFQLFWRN
Assay: Functional study on the bradykinin receptor 1 (B1R), FLIPR Ca2+ assay, hB1R cells
Type: cell-based
Details: CHO-K1, test substance 10 μM, agonist Lys-Des-Arg9-bradykinin 0.5 nM, % inhibition compared with the maximum achievable inhibition, read-out: B1R Antagonism, human [10 μM] % Inhibition
Structures can show the parent of a compound that is named as a salt.
valueKind: inhibition at 10 µM (%)

INSERT INTO measurements (compound, number) VALUES
  ('COc1cc(C)c(S(=O)(=O)N2CCCCC2COCC(=O)N2CCC(N3CCN(C)CC3)CC2)c(C)c1 (stereo not shown) [Example 112, hydrochloride]', 102),
  ('COc1cc(C)c(S(=O)(=O)N2CCCC2COCC(=O)N2CCC(N3CCCC3)CC2)c(C)c1 (stereo not shown)', 103),
  ('O=C(COCC1CCCCN1S(=O)(=O)c1ccc(Cl)c(Cl)c1)N1CCN(Cc2ccc3c(c2)OCO3)CC1 (stereo not shown)', 73.2),
  ('COc1cc(C)c(S(=O)(=O)N2CCCC2COCC(=O)N2CCN(Cc3cccc(C#N)c3)CC2)c(C)c1 (stereo not shown) [Example 93, hydrochloride]', 106),
  ('COc1ccc(S(=O)(=O)N2CCCCC2COCC(=O)N2CCC(CCN3CCCCC3)CC2)cc1 (stereo not shown)', 65),
  ('Cc1cccc(CC2CCCCN2C(=O)COCC2CCCCN2S(=O)(=O)c2c(Cl)cccc2Cl)n1 (stereo not shown)', 103),
  ('O=C(COCC1CCCCN1S(=O)(=O)c1c(Cl)cccc1Cl)N1CCCN(Cc2ccccc2)CC1 (stereo not shown)', 106);
